# ASSAYED_TARGET: Aurora kinase B (Homo sapiens) (UniProt Q96GD4)
# Sequence (Q96GD4 whole entry, looked up): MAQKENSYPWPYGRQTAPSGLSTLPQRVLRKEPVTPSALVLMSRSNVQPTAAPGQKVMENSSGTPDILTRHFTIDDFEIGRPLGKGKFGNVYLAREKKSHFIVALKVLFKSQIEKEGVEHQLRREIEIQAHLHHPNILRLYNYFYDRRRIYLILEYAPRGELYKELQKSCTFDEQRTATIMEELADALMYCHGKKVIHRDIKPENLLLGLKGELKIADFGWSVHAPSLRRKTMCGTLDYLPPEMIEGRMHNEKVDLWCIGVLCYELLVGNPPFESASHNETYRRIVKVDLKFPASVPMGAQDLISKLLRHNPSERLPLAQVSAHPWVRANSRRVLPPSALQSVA
# MEASUREMENT_DESCRIPTION: AURKB enzyme activity inhibitors – biochemical, scintillation, dry powder, set 2, counter-screen for STK33 inhibitor project, dose response (AID 588756)
# APPLIED_CONDITIONS: gamma-32P-ATP (ATP at Km), P30 filter scintillation
The source made the active and inactive calls.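 The calls were made as follows: active = a falling-signal curve whose fitted AC50 is at most ten times the top valid dose; inconclusive = flat fit with 30 to 70% inhibition, or a poor fit; inactive = the rest.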
Log the outcome using a class from active, inactive

# example entries with known answers
{"columns": ["MOLECULAR_STRING", "CLASSIFICATION"],
 "data": [
  ["COc1cc(/C=C2\\SC(=NCc3ccccc3)NC2=O)ccc1O", "active"],
  ["COc1cc(/C=C2\\SC(=Nc3ccccc3F)NC2=O)ccc1O", "inactive"],
  ["COc1cc(/C=C2\\SC(=Nc3ccccc3Cl)NC2=O)ccc1O", "active"]
]}

How did this test come out for `COc1cc(/C=C2\SC(N)=NC2=O)ccc1O` ? inactive
